tested on: mouse apolipoprotein B mRNA; assay: Inhibition of mouse apolipoprotein B mRNA levels in primary hepatocytes, quantitative real-time PCR; assay type: cell-based; conditions: 300 nM
Oligonucleotides are written 5' to 3', each unit as a sugar letter and its base; * is a phosphorothioate linkage, no mark a phosphodiester; rarer units and linkages stand in square brackets, end groups in braces. Plain capitals give the bases only. e = 2'-O-(2-methoxyethyl) (MOE); [5mC] = 5-methylcytosine; d = 2'-deoxy (DNA)
MEASURE NAME: Percent Inhibition of mouse apolipoprotein B mRNA levels (%)
Unit % implied. Number only.

Please respond with reported Percent Inhibition of mouse apolipoprotein B mRNA levels (system mouse apolipoprotein B mRNA) for 147483 (antisense eA*eT*eG*eT*e[5mC]*dA*dA*dT*dG*d[5mC]*d[5mC]*dA*d[5mC]*dA*dT*eG*eT*e[5mC]*e[5mC]*eA) [compound 147483] . 89

Give Percent Inhibition of mouse apolipoprotein B mRNA levels for 147769 (antisense e[5mC]*eA*eT*eG*e[5mC]*d[5mC]*dT*dG*dG*dA*dA*dG*d[5mC]*d[5mC]*dA*eG*eT*eG*eT*e[5mC]) [compound 147769] tested on mouse apolipoprotein B mRNA. 28

Give the observed Percent Inhibition of mouse apolipoprotein B mRNA levels of 147776 (antisense eG*e[5mC]*eT*eT*eG*dA*dA*dG*dT*dT*d[5mC]*dA*dT*dT*dG*eA*eG*eA*eA*eT) [compound 147776] for mouse apolipoprotein B mRNA. 44

Print mouse apolipoprotein B mRNA Percent Inhibition of mouse apolipoprotein B mRNA levels for 147764 (antisense eG*eT*e[5mC]*e[5mC]*e[5mC]*dT*dG*dA*dA*dG*dA*dT*dG*dT*d[5mC]*eA*eA*eT*eG*e[5mC]) [compound 147764] . 90

----------
system: mouse apolipoprotein B mRNA; experiment: Inhibition of mouse apolipoprotein B mRNA levels in primary hepatocytes, quantitative real-time PCR; assay type: cell-based; design: concentration or dose not given beside the values; conditions: averages from two experiments
Oligonucleotides are written 5' to 3', each unit as a sugar letter and its base; * is a phosphorothioate linkage, no mark a phosphodiester; rarer units and linkages stand in square brackets, end groups in braces. Plain capitals give the bases only. e = 2'-O-(2-methoxyethyl) (MOE); [5mC] = 5-methylcytosine; d = 2'-deoxy (DNA)
API: label(entry) gives class 1 if the entry's %INHIB of mouse apolipoprotein B mRNA levels is strictly smaller than 50%; on equality or larger values it gives class 0.

Does the reported %INHIB of mouse apolipoprotein B mRNA levels of 147767 (antisense e[5mC]*eG*eT*e[5mC]*e[5mC]*dT*dT*dG*dA*dG*d[5mC]*dA*dG*dT*dG*e[5mC]*e[5mC]*e[5mC]*eG*eA) [compound 147767] stay below 50%? class 1

Is %INHIB of mouse apolipoprotein B mRNA levels of 147763 (antisense eT*eG*e[5mC]*eG*eA*d[5mC]*dT*dG*dT*dG*dT*d[5mC]*dT*dG*dA*eT*eT*eT*e[5mC]*e[5mC]) [compound 147763] strictly below 50%? class 1

For 147495 (antisense eG*eT*eT*eA*eG*dG*dA*d[5mC]*d[5mC]*dA*dG*dG*dG*dA*dT*eT*eG*eT*eG*eA) [compound 147495] , is the recorded %INHIB of mouse apolipoprotein B mRNA levels below the cut-off of 50%? class 1

Please let me know if 147480 (antisense eT*e[5mC]*eT*e[5mC]*eA*d[5mC]*d[5mC]*d[5mC]*dT*d[5mC]*dA*dT*dG*d[5mC]*dT*e[5mC]*e[5mC]*eA*eT*eT) [compound 147480] shows %INHIB of mouse apolipoprotein B mRNA levels below 50%. class 0

Please determine if 147773 (antisense e[5mC]*eA*eT*e[5mC]*eA*dG*dA*d[5mC]*dG*dT*dG*dA*dT*dG*dT*eT*e[5mC]*e[5mC]*e[5mC]*eT) [compound 147773] is below 50% in terms of %INHIB of mouse apolipoprotein B mRNA levels. class 0

Please indicate whether the reported %INHIB of mouse apolipoprotein B mRNA levels of 147762 (antisense eA*eT*eG*e[5mC]*eT*d[5mC]*d[5mC]*dA*dT*dT*d[5mC]*dT*d[5mC]*dA*d[5mC]*eA*eT*eG*e[5mC]*eT) [compound 147762] is strictly below 50%. class 1

%INHIB of mouse apolipoprotein B mRNA levels under 50%? Item: 147481 (antisense eT*eG*eA*e[5mC]*eT*dG*dT*d[5mC]*dA*dA*dG*dG*dG*dT*dG*eA*eG*e[5mC]*eT*eG) [compound 147481] class 1

%INHIB of mouse apolipoprotein B mRNA levels strictly < 50% for this substance? 147775 (antisense e[5mC]*eT*eG*eT*e[5mC]*dA*dT*dG*dA*d[5mC]*dT*dG*d[5mC]*d[5mC]*d[5mC]*eT*eT*eT*eA*e[5mC]) [compound 147775] class 0

%INHIB of mouse apolipoprotein B mRNA levels under 50%? Item: 147766 (antisense eG*eG*eA*eG*e[5mC]*d[5mC]*d[5mC]*dA*d[5mC]*dG*dT*dG*d[5mC]*dT*dG*eA*eG*eA*eT*eT) [compound 147766] class 0

Criterion: %INHIB of mouse apolipoprotein B mRNA levels strictly below 50%. Is it met by 147489 (antisense e[5mC]*e[5mC]*eT*eA*eT*dA*d[5mC]*dT*dG*dG*d[5mC]*dT*dT*d[5mC]*dT*eA*eT*eG*eT*eT) [compound 147489] ? class 1

Would you kindly verify if %INHIB of mouse apolipoprotein B mRNA levels of 147768 (antisense e[5mC]*e[5mC]*e[5mC]*eA*eT*dA*dT*dG*dG*dA*dG*dA*dA*dA*dT*e[5mC]*e[5mC]*eT*eT*e[5mC]) [compound 147768] is strictly less than 50%? class 1

For 147764 (antisense eG*eT*e[5mC]*e[5mC]*e[5mC]*dT*dG*dA*dA*dG*dA*dT*dG*dT*d[5mC]*eA*eA*eT*eG*e[5mC]) [compound 147764] , is the recorded %INHIB of mouse apolipoprotein B mRNA levels below the cut-off of 50%? class 0

Is %INHIB of mouse apolipoprotein B mRNA levels of 147505 (antisense eG*eG*eA*eA*eG*dT*dG*dA*dG*dA*d[5mC]*dT*dT*dT*d[5mC]*eT*eA*eA*eG*e[5mC]) [compound 147505] strictly below 50%? class 0

Bench note: check whether 147482 (antisense eG*eT*e[5mC]*e[5mC]*eA*dG*d[5mC]*d[5mC]*dT*dA*dG*dG*dA*dA*d[5mC]*eA*e[5mC]*eT*e[5mC]*eA) [compound 147482] shows %INHIB of mouse apolipoprotein B mRNA levels below 50% class 0

Lab note: confirm whether the reported %INHIB of mouse apolipoprotein B mRNA levels for this substance is below 50%, equality not counting. substance: 147772 (antisense eG*eT*eT*eA*eT*dA*dA*dA*dG*dT*d[5mC]*d[5mC]*dA*dG*d[5mC]*eA*eT*eT*eG*eG) [compound 147772] class 0

Lab log: compare recorded %INHIB of mouse apolipoprotein B mRNA levels with 50%; is it strictly lower for 147502 (antisense eA*eT*eG*eG*eG*dA*dG*d[5mC]*dA*dT*dG*dG*dA*dG*dG*eT*eT*eG*eG*e[5mC]) [compound 147502] ? class 1

Find out if reported %INHIB of mouse apolipoprotein B mRNA levels for 147507 (antisense eA*eT*eT*eG*eG*d[5mC]*dT*dT*d[5mC]*dA*dT*dT*dG*dG*d[5mC]*eA*eA*e[5mC]*eA*e[5mC]) [compound 147507] is less than 50% class 0

Strictly below 50%: is that where %INHIB of mouse apolipoprotein B mRNA levels of 147499 (antisense e[5mC]*eT*eG*e[5mC]*eA*dG*dG*dG*d[5mC]*dG*dT*d[5mC]*dA*dG*dT*eG*eA*e[5mC]*eA*eA) [compound 147499] sits? class 1

Consider the substance 147494 (antisense eA*e[5mC]*eA*eA*e[5mC]*dT*dG*dG*dG*dA*dT*dA*dG*dT*dG*eT*eA*eG*e[5mC]*e[5mC]) [compound 147494] . Is its %INHIB of mouse apolipoprotein B mRNA levels strictly less than 50%? class 0

Does the reported %INHIB of mouse apolipoprotein B mRNA levels of the following substance sit strictly below 50%? 147761 (antisense eG*eT*eT*e[5mC]*eA*dT*dG*dG*dA*dT*dT*d[5mC]*d[5mC]*dT*dT*e[5mC]*eA*eG*eG*eA) [compound 147761] class 1

Quick check: does 147476 (antisense eG*eA*eG*eG*eA*dG*dA*dT*dT*dG*dG*dA*dT*d[5mC]*dT*eT*eA*eA*eG*eG) [compound 147476] have %INHIB of mouse apolipoprotein B mRNA levels under 50%? class 1

Given 147769 (antisense e[5mC]*eA*eT*eG*e[5mC]*d[5mC]*dT*dG*dG*dA*dA*dG*d[5mC]*d[5mC]*dA*eG*eT*eG*eT*e[5mC]) [compound 147769] , is recorded %INHIB of mouse apolipoprotein B mRNA levels strictly lower than 50%? class 0

A record lists 147778 (antisense eT*e[5mC]*eA*eG*eA*dT*dA*dT*dA*d[5mC]*dA*dT*dT*dG*dG*e[5mC]*eT*eT*e[5mC]*eA) [compound 147778] . Is its %INHIB of mouse apolipoprotein B mRNA levels below 50%? class 1
